assay: Inhibition of Trypanosoma vivax Inosine-adenosine-guanosine-nucleoside hydrolase
readout name: Ki (µM)

OC[C@@H]1[C@@H](O)[C@@H](O)CN1Cc1ccc2cccnc2c1 :: 0.72
OC[C@@H]1[C@@H](O)[C@@H](O)CN1Cc1ccc(-n2cccc2)cc1 :: 1
COc1ccc2cccc(CN3C[C@H](O)[C@H](O)[C@H]3CO)c2n1 :: 1.3
Cn1nnc2cc(CN3C[C@H](O)[C@H](O)[C@H]3CO)ccc21 :: 0.72
OC[C@@H]1[C@@H](O)[C@@H](O)CN1Cc1ccc(I)cc1 :: 4.3

1 = O=c1ccc2cccc(CN3C[C@H](O)[C@H](O)[C@H]3CO)c2[nH]1
2 = N=C(N)c1ccc(CN2C[C@H](O)[C@H](O)[C@H]2CO)cc1
3 = OC[C@@H]1[C@@H](O)[C@@H](O)CN1Cc1cccc2nccnc12
4 = Cc1cc(N)c2cccc(CN3C[C@H](O)[C@H](O)[C@H]3CO)c2n1
Ask: Hey, quick one: sort these by Ki, largest value first please. Reply with the labels, ordered as the question asks.
Reply: 1, 4, 2, 3

Recorded values, source ChEMBL document CHEMBL1255445.
